Exercise: state measured mortality at 50 ppm for each of the molecules provided.
System: cotton melon aphid (Aphis gossypii (Glover))
Test: Test B: control of cotton melon aphid on pre-infested cotton plant, spray
Format: in vivo
Conditions: 144 h, sprayed at 50 ppm, visually assessed after 6 days
Text: Test compounds were formulated using a solution containing 10% acetone, 90% water and 300 ppm X-77® Spreader Lo-Foam Formula non-ionic surfactant containing alkylarylpolyoxyethylene, free fatty acids, glycols and isopropanol (Loveland Industries, Inc. Greeley, Colorado, USA). […] Test compounds were formulated and sprayed at 250 and/or 50 ppm. […] Each test unit was then visually assessed for insect mortality.

(Q) // output mortality at 50 ppm; input O=C(NC1(C(F)F)CC1)c1cccc2nn(-c3cccnc3)cc12 ; system cotton melon aphid (Aphis gossypii (Glover))
(A) ≥ 80%

(Q) Provide mortality at 50 ppm, recorded with cotton melon aphid (Aphis gossypii (Glover)), of CSCC(C)(C)NC(=O)c1ccc(F)c2nn(-c3cccnc3)cc12
(A) ≥ 80%

(Q) Write down the reported mortality at 50 ppm (system: cotton melon aphid (Aphis gossypii (Glover))) of CC(C)(CS(C)(=O)=O)NC(=O)c1ccc(F)c2nn(-c3cccnc3)cc12
(A) ≥ 80%

(Q) Report mortality at 50 ppm on cotton melon aphid (Aphis gossypii (Glover)) for this entry: C[S+]([O-])CC(C)(C)NC(=O)c1ccc(F)c2nn(-c3cccnc3)cc12 (stereo not shown)
(A) ≥ 80%
